Consider the following compounds; for each one, report its TGI.
# Test system: HT29 colon
# Experimental Protocol: NCI tumour cell line growth inhibition, 48 h

>  <Compound>
COc1cc2c(c(OC)c1OC)-c1ccc(NNC(=S)N(Cc3cccc(C[N+](Cc4cccc(CNC56CC7CC(CC(C7)C5)C6)c4)(Cc4cccc(CNC56CC7CC(CC(C7)C5)C6)c4)Cc4cccc(CN(C(=S)NNc5ccc6c(cc5=O)[C@@H](NC(C)=O)CCc5cc(OC)c(OC)c(OC)c5-6)C56CC7CC(CC(C7)C5)C6)c4)c3)C34CC5CC(CC(C5)C3)C4)c(=O)cc1[C@@H](NC(C)=O)CC2 (stereo partly drawn)

>  <TGI>
2.81 µM

$$$$
>  <Compound>
OCC(O)C1OC2CC1Nc1ccccc1N2 (stereo not drawn)

>  <TGI>
> 100 µM

$$$$
>  <Compound>
Cn1cc(NC(=O)c2cc(NC(=O)Nc3cc(C(=O)Nc4cc(C(=O)NCCC(=N)N)n(C)c4)n(C)c3)cn2C)cc1C(=O)NCCC(=N)N

>  <TGI>
> 100 µM

$$$$
>  <Compound>
COc1ccccc1NC(=S)N/N=C(/C)c1ccccn1

>  <TGI>
> 100 µM

$$$$

Value sought for every listed compound: TGI.
1. COc1ccc(/C=C(\C(=C/c2ccc(OC)cc2)[N+](=O)[O-])[N+](=O)[O-])cc1
2. CC(NC1=NCCO1)c1cccc([N+](=O)[O-])c1 (stereo not drawn)
3. Nc1nc2c(c3ncccc13)C(c1ccc(Cl)c(Cl)c1)Cc1ncccc1-2 (stereo not drawn)
4. O=c1[nH]c2ccccc2nc1/C=C(\O)C(F)F
5. CN(C)/C=C/c1nnnn1-c1ccc(Cl)cc1
6. CCOC(=O)C(=O)C1C(=O)Nc2ccccc21 (stereo not drawn)
7. CC(NC(=O)OCc1ccccc1)NC(=O)C(CC(=O)OC(C)(C)C)NC(=O)OC(C)(C)C (stereo not drawn)
8. C[N+](C)([O-])CCCNc1c2ccccc2nc2cccc([N+](=O)[O-])c12

["11.1 µM", "> 100 µM", "11.9 µM", "> 100 µM", "45 µM", "> 100 µM", "> 100 µM", "0.606 µM"]

---

# Test system: HOP-92 NSCLC
# Experimental Protocol: NCI tumour cell line growth inhibition, 48 h; in the data active = GI50 below about 0.43 µM; inactive = the rest
Choose one outcome from this list and give only that: active, inactive

>  <Compound>
O=c1[nH]cnc2c1nnn2C1OC(CO)C(O)C1O (stereo not given)

>  <Label>
inactive

$$$$
>  <Compound>
O=[N+]([O-])c1cc(O)c(O)cc1-c1cn2ccsc2n1

>  <Label>
inactive

$$$$
>  <Compound>
CSc1ccc(-c2cc(-c3ccc(NC(=O)CCCN4CCCC4)cc3)nc(-c3ccc(NC(=O)CCCN4CCCC4)cc3)c2)cc1

>  <Label>
inactive

$$$$
>  <Compound>
O=CN1N=C(c2ccc(Nc3ccnc4cc(Cl)ccc34)cc2)CC1c1ccccc1 (stereo not given)

>  <Label>
inactive

$$$$
>  <Compound>
NS(=O)(=O)c1ccc(C2C3=C(CCCC3=O)OC3=C2C(=O)c2ccccc2C3=O)cc1 (stereo not given)

>  <Label>
inactive

$$$$
>  <Compound>
Cc1nc2cncc(C#Cc3cncc(C(=O)Nc4ccc(CN5CCN(C)CC5)c(C(F)(F)F)c4)c3)c2nc1C

>  <Label>
active

$$$$
>  <Compound>
O=S(=O)([O-])[O-].[Cl-].[NH2-].[NH2-].[NH2-].[NH2-].[Ru+3].c1ccc(-c2cccnc2)cc1

>  <Label>
inactive

$$$$
>  <Compound>
OCCCCC#Cc1ccccc1C#Cc1ccccc1F

>  <Label>
inactive

$$$$
>  <Compound>
CCCCCCCCCCCCCC[P+](CCCCCC)(CCCCCC)CCCCCC

>  <Label>
active

$$$$

Continue with the next compound.
Any idea what this test logged for C=C1C(=O)O[C@H]2[C@H]1CC/C(CNC(=O)/C=C/c1cccc(OC)c1)=C\CC[C@@]1(C)O[C@@H]21 ?
inactive

---

# Test system: OVCAR-8 ovarian
# Experimental Protocol: NCI tumour cell line growth inhibition, 48 h
Consider the following molecules; for each one, report its GI50.

Here are 3 molecules together with their reported answers.
>  <Molecule>
CC(=N\O)/C(C)=N/O.CC(=N\O)/C(C)=N/O.CC(=N\O)/C(C)=N/O.CC(=N\O)/C(C)=N/O.[Cu].[Cu]

>  <Study System>
OVCAR-8 ovarian

>  <GI50>
20.3 µM

$$$$
>  <Molecule>
O=S(=O)([O-])[O-].[Cl-].[NH2-].[NH2-].[NH2-].[NH2-].[Ru+3].c1ccc(-c2cccnc2)cc1

>  <Study System>
OVCAR-8 ovarian

>  <GI50>
> 100 µM

$$$$
>  <Molecule>
Cc1ccccc1S(=O)(=O)N1[C@H](c2ccc(Cl)cc2)C(C(=O)N[C@@H](Cc2ccccc2)C(N)=O)=C[C@@H]1C(C)(C)C

>  <Study System>
OVCAR-8 ovarian

>  <GI50>
5.95 µM

$$$$

Value sought for every listed molecule: GI50.
1. C[C@]12CC/C(=N\N)C[C@@H]1CC[C@@H]1[C@@H]2CC[C@]2(C)/C(=N/N)CC[C@@H]12
2. COc1ccc(C(O)c2cc3c(N)c(C(=O)Nc4cccc(Cl)c4C)sc3nc2C)cc1 (stereo not drawn)
3. O=CN1N=C(c2ccc(Nc3ccnc4cc(Cl)ccc34)cc2)CC1c1ccccc1 (stereo not drawn)
4. COc1cc(C(=O)/C=C/c2c(-c3ccc(F)cc3)nc3sc(C)cn23)cc(OC)c1OC
5. CC1=C(C(=O)Nc2ccc3[nH]ncc3c2)C(c2ccc(F)cc2)NC(=O)N1 (stereo not drawn)

> 100 µM
0.948 µM
4.53 µM
4.94 µM
> 25 µM

---

Consider the following molecules; for each one, report its TGI.
# System: UO-31 renal
# Experimental Protocol: NCI tumour cell line growth inhibition, 48 h

Here are 5 molecules together with their reported answers.
>  <Molecule>
O=c1[nH]c(=O)n(C2CC(O)C(CO)O2)cc1C(OCC(F)(F)F)OCC(F)(F)F (stereo unspecified)

>  <Study System>
UO-31 renal

>  <TGI>
> 100 µM

$$$$
>  <Molecule>
O=c1[nH]c(-c2ccccc2)nc2ccc(Cl)cc12

>  <Study System>
UO-31 renal

>  <TGI>
> 100 µM

$$$$
>  <Molecule>
S=c1nc2[nH]c3ccc(Br)cc3c2n[nH]1

>  <Study System>
UO-31 renal

>  <TGI>
> 100 µM

$$$$
>  <Molecule>
COc1ccc(Oc2nc3ccc(C(F)(F)F)cc3nc2-c2ccccc2)cc1

>  <Study System>
UO-31 renal

>  <TGI>
> 100 µM

$$$$
>  <Molecule>
Nc1ccc(-c2nc3cc(F)ccc3s2)cc1I

>  <Study System>
UO-31 renal

>  <TGI>
> 65.2 µM

$$$$

Value sought for every listed molecule: TGI.
1. Nc1ccc(N=Nc2ccccc2)c(N)n1
2. COc1cccc2c1C1(O)C2CCCC12OCCCO2 (stereo unspecified)
3. CCc1nn(S(=O)(=O)c2ccc(C)cc2)c2c1CS(=O)(=O)CC2

1: 43 µM; 2: > 100 µM; 3: > 100 µM

Value sought for every listed molecule: TGI.
1. NS(=O)(=O)c1ccc(Nc2c3ccccc3nc3c(C(=O)NCCCN(CCO)CCO)cccc23)cc1
2. N#Cc1cccc(C(=O)c2cnn(-c3ccc(F)cc3)c2N)c1
3. COc1ccc(C[C@H](N)C(=O)N2C[C@H](CO)C[C@H](n3cnc4c(N(C)C)ncnc43)C2)cc1

1: > 100 µM; 2: > 25 µM; 3: > 100 µM

---

# System: CCRF-CEM leukemia
# Experimental Protocol: NCI tumour cell line growth inhibition, 48 h; in the data active = GI50 below about 0.43 µM; inactive = the rest
Choose one outcome from this list and give only that: active, inactive

These recorded examples may help you get a feel for the data.
>  <Compound>
CCN(CC)CCOc1ccc(Nc2ncc3cc(-c4c(Cl)cccc4Cl)c(=O)n(CCOC)c3n2)cc1

>  <Label>
inactive

$$$$
>  <Compound>
C=C1C(=O)O[C@H]2[C@H]1CC/C(CNS(=O)(=O)c1ccc3ccccc3c1)=C\CC[C@@]1(C)O[C@@H]21

>  <Label>
active

$$$$
>  <Compound>
CCCCCCOc1ccc(/C=N/NC(N)=S)cc1

>  <Label>
inactive

$$$$
>  <Compound>
COc1ccc(-c2nsc3c2NC(=O)CC3c2ccc3c(c2)OCO3)cc1 (stereo not given)

>  <Label>
inactive

$$$$
>  <Compound>
O=C(Nc1ccc(Cl)cc1)c1cc2c(cc1O)[nH]c1ccccc12

>  <Label>
inactive

$$$$

Any idea what this test logged for CN(C)c1ccc(C(=O)c2ccc(N(C)C)c(N)c2)cc1N ?
inactive

Note, next up: O=S1(=O)N(Cc2ccccc2)[C@@H](Cc2ccccc2)C2O[C@H]2[C@H](Cc2ccccc2)N1Cc1ccccc1 (stereo not given in full)
inactive

Note, next up: CN(C)CCCNc1c2ccccc2nc2cccc([N+](=O)[O-])c12
active

Note, next up: COc1ccc(C2=CC(c3cc(OC)c(OC)c(OC)c3)NC(=O)N2)cc1OC (stereo not given)
inactive

Note, next up: COc1cc([C@@H]2c3cc4c(cc3C(Br)[C@H]3COC(=O)[C@H]23)OCO4)cc(OC)c1OC (stereo not given in full)
active
